SH2 binding enrichment by entry:
- assay-system: c-Src SH2;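 also: peptide library displayed on the E. coli surface as eCPX fusions, selected cells deep-sequenced, score is each peptide's frequency after selection divided by its frequency in the input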
- assay: SH2 binding enrichment of the phosphorylated peptide, bacterial display (enrichment ratio); higher = better substrate or ligand; peptides without Tyr show the background
property: SH2 binding enrichment

sequence-content: LNCDRYSVGLL [PDE6A_Y275]
reported-measurement: 0.588

sequence-content: HLVLNYGVCIC [JAK2_Y613_V617I]
reported-measurement: 0.614

sequence-content: KDKLPYPFDDP [GPX2_Y125_YF]
reported-measurement: 0.454

sequence-content: EKKQTYGSCRK [LACTB_Y473_R469K]
reported-measurement: 0.867

sequence-content: QHNPEYVQQAT [LRRC7_Y1058_S1063T]
reported-measurement: 0.429

sequence-content: VKMLLYTEVTR [GDI1_Y93]
reported-measurement: 0.771

sequence-content: EFISENCGEII [EZH2_Y641_Y641N]
reported-measurement: 0.62

sequence-content: HKGASYVFRLS [PTPRD_Y891]
reported-measurement: 0.97

sequence-content: ANVIRYFPTQA [SLC25A4_Y81]
reported-measurement: 0.64

sequence-content: DAGTDYVGISC [FREM2_Y2061_R2066C]
reported-measurement: 0.658

sequence-content: TEALYYTDDPA [ADPRS_Y75_T79P]
reported-measurement: 0.797

sequence-content: KDHPDYKFQPR [SOX10_Y171_YF]
reported-measurement: 0.498

sequence-content: YASALYRQRRS [FGF11_Y162]
reported-measurement: 0.419

sequence-content: CLLHCYFSQIR [MCM3AP_Y873]
reported-measurement: 1.53

sequence-content: HNLDFYKETTN [FGFR3_Y648_K650E_YF]
reported-measurement: 0.995

sequence-content: DMDATYRPMYS [JUP_Y701]
reported-measurement: 0.513

sequence-content: HRGSLYLAIEF [TEK_Y899_Y897S_YF]
reported-measurement: 0.536

sequence-content: RRAKGYPIDLF [ITGB2_Y125_YF]
reported-measurement: 0.427

sequence-content: VFPIDYYFPPQ [AR_Y552_L548F]
reported-measurement: 1.04

sequence-content: TGNPAYRSFSN [IL4R_Y497_A492T]
reported-measurement: 0.442

sequence-content: FDDIAYIRKNL [PIK3CA_Y1021_T1025N]
reported-measurement: 0.556

sequence-content: ENPAKYDDIKK [GAPDH_Y255_K251N]
reported-measurement: 1.39

sequence-content: GRERPYGGGGG [FUS_Y526_R521G]
reported-measurement: 0.485

sequence-content: DNQFAYLKAII [HNF4A_Y288_E285Q_YF]
reported-measurement: 0.353

sequence-content: LEIETDRRLLD [KRT12_Y429_Y429D]
reported-measurement: 0.538

sequence-content: DGLALYTGSAL [COL6A3_Y524_S521L]
reported-measurement: 0.36

sequence-content: KKMKCYHVGKV [HARS2_Y151_R150C]
reported-measurement: 1.12

sequence-content: RAYRHYLLKQK [SCN2A_Y1919_R1918H]
reported-measurement: 0.442

sequence-content: GQETSYIEDNC [PAH_Y24]
reported-measurement: 0.68

sequence-content: LSSEMCVKSFT [F5_Y2149_Y2149C_YF]
reported-measurement: 0.641

sequence-content: LESTLYESSVV [TRPV4_Y91]
reported-measurement: 0.448

sequence-content: FSAPNYCYRCG [PPP2CA_Y265]
reported-measurement: 0.762

sequence-content: VLNKGYRMVVN [HINT1_Y94_G89V]
reported-measurement: 0.424

sequence-content: KKYPDYIQIAM [SGMS2_Y59]
reported-measurement: 0.644

sequence-content: IHSGIYYKPES [L2HGDH_Y102]
reported-measurement: 0.67

sequence-content: SVVVPYGPPEV [TP53_Y220_E221G]
reported-measurement: 0.537

sequence-content: IKGIRYLHHRG [GUCY2D_Y656]
reported-measurement: 1.01

sequence-content: EKQLLYSENKT [FRK_Y132]
reported-measurement: 0.55

sequence-content: WPLKWYVPECI [ZAP70_Y506_A507V]
reported-measurement: 0.499

sequence-content: SRASFYRKGGC [ALK_Y1283_Y1278S_YF]
reported-measurement: 0.433

sequence-content: IRKDLYANNVL [ACTA2_Y296]
reported-measurement: 0.569

sequence-content: DHAGMYGLGDR [MAPT_Y18_T17M]
reported-measurement: 0.44

sequence-content: EYITRYIDSLK [PSMA7_Y110_A112D]
reported-measurement: 0.588

sequence-content: APQYTYTQGGQ [FLNA_Y1763_A1764T]
reported-measurement: 1.84

---

- System: c-Src
- assay: phosphorylation enrichment, bacterial display (enrichment ratio); higher = better substrate or ligand; peptides without Tyr show the background
Values of phosphorylation enrichment greater than or equal to 0.5 map to TRUE; values below map to FALSE.

sequence-content: EPDSLYGCGRG [ATM_Y2019_G2023R]
label-class: TRUE
//
sequence-content: YRQLPYCPSVE [CTNND2_Y508_Q507P]
label-class: TRUE
//
sequence-content: CNNFICGGCRG [SPINT2_Y163_Y163C]
label-class: FALSE
//
sequence-content: PRRRFYVVACD [RNASE3_Y134_G130R]
label-class: TRUE
//
sequence-content: VTSLKYSTSPF [BRIP1_Y916_YF]
label-class: FALSE
//
sequence-content: RNFVRYVQGLK [VWF_Y1400]
label-class: TRUE
//
sequence-content: LEIETYPRLLD [KRT12_Y429_R430P]
label-class: TRUE
//
sequence-content: PLDNLYAEPAV [PRPS1_Y146_V142L]
label-class: TRUE
//
sequence-content: TLQSMYGCDVG [HLA-B_Y123]
label-class: TRUE
//
sequence-content: CTNIHYNFMCN [TP53_Y234_T231N_YF]
label-class: TRUE
//
sequence-content: QRKPSYNQLPS [BRCA2_Y71_A75P]
label-class: TRUE
//
sequence-content: GKGGSYSKAES [HLA-E_Y341_W346S]
label-class: FALSE
//
sequence-content: RFLERDIFNRE [HLA-DPB1_Y57_Y57D_YF]
label-class: TRUE
//
sequence-content: CTLLPYYSAPV [DGKE_Y269_R273P]
label-class: TRUE
//
sequence-content: IFLADCRIMEG [ALOX12B_Y318_Y318C_YF]
label-class: TRUE
//
sequence-content: LITTLYIGFLD [KCNQ1_Y267_G272D]
label-class: TRUE
//
sequence-content: QTEGEYSSLEH [IDH3B_Y171]
label-class: TRUE
//
sequence-content: EASEQHLTKAS [NRCAM_Y739_Y739H]
label-class: FALSE
//
sequence-content: SVVVPYGPPEV [TP53_Y220_E221G]
label-class: FALSE
//
sequence-content: GGMTEYELVVV [KRAS_Y4_K5E]
label-class: TRUE
//
sequence-content: DRIVNYSRASI [ATP7A_Y1459]
label-class: FALSE
//
sequence-content: KAIMTYVPSFF [ACTN4_Y260_S262P_YF]
label-class: FALSE
//
sequence-content: DVVKDCAFVHM [RBM14_Y114_Y114C]
label-class: FALSE
//
sequence-content: FTYDPYSEEDP [IL2RB_Y387]
label-class: TRUE
//
sequence-content: LSDGPYSNSFE [EPOR_Y485_P488S_YF]
label-class: TRUE
//
sequence-content: FRPPFYHRDCM [HGD_Y334_N337D_YF]
label-class: FALSE
//
sequence-content: TYTVSYLPDMS [FLNC_Y1602]
label-class: TRUE
//
sequence-content: KILTHYKRPHT [KMT2D_Y5349]
label-class: FALSE
//
sequence-content: DGQVNYEELVQ [CALM1_Y139_F142L]
label-class: TRUE
//
sequence-content: EQFELYCEMGS [CBL_Y371_YF]
label-class: TRUE
//
sequence-content: LNPLFYSLRNK [OR5R1_Y290_I289F]
label-class: FALSE
//
sequence-content: HPFNSYTFPRL [PAK5_Y316_S312P_YF]
label-class: TRUE
//
sequence-content: QKINNYLTVPA [SLC9A1_Y683]
label-class: TRUE
//
sequence-content: FISLIYTNFEA [GSTP1_Y109_YF]
label-class: TRUE
//
sequence-content: LIGRRYDDPEV [HSPA9_Y128]
label-class: TRUE
//
sequence-content: YCRHNYGVVES [HLA-DRB1_Y112]
label-class: FALSE
//
sequence-content: GRRGQYVMPSE [TTC7A_Y396_L399P]
label-class: FALSE
//
sequence-content: VTSLKYSTPPY [BRIP1_Y916_S919P]
label-class: FALSE
//
sequence-content: PSELYYSKIGP [SMG1_Y2254]
label-class: TRUE
//
sequence-content: AGVDRYSLGTS [C5orf42_Y1451_P1446A]
label-class: FALSE
//
sequence-content: LNCDRYSVGLL [PDE6A_Y275]
label-class: TRUE
//
sequence-content: DKATEYIQFVR [MAX_Y70_M74V_YF]
label-class: TRUE
//
sequence-content: VLDCHYPEDEV [C1QBP_Y188]
label-class: TRUE
//
sequence-content: NKVQFYIPDMN [NCR1_Y84_K82Q]
label-class: FALSE
//
sequence-content: QWPGPYDRPGA [HNRNPH2_Y210_R206W]
label-class: TRUE
//
sequence-content: HFGCVYYGTLL [MET_Y1093_H1094Y]
label-class: TRUE
//
sequence-content: PMWHPYKVDVT [TP53TG5_Y255]
label-class: TRUE
//
sequence-content: KGNMYYENSYA [EGFR_Y113_R108K]
label-class: FALSE
//
sequence-content: RMETAYGPSVT [MXRA5_Y2717_E2716A]
label-class: TRUE
//
sequence-content: FRNSLYAPDFS [FAM92A_Y226_YF]
label-class: TRUE
//
sequence-content: RASDFYSQQMA [GBP6_Y334_A331S_YF]
label-class: TRUE
